B1: TEKT4 (parent)
chain: SEVEELNMSLTALREKLLEAEQSL

- Variants of: B1
- Assay Info: protein stability index of a GFP-peptide fusion (GPS, HEK-293T) (PSI 1-6); higher = more stable;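 also: lentivirally expressed fusions sorted by FACS into six bins by GFP to DsRed ratio, PSI derived from sequencing read proportions per bin multiplied by bin number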
- Test Conditions: c terminus: a fixed tail appended

# Mutant Name, protein stability index
measured = [
    ("L13R", 4.83),
    ("M8W", 2.28),
    ("K16A", 3.42),
    ("L18G", 4.45),
    ("K16S", 3.74),
    ("A12K", 3.17),
    ("S23C", 2.39),
    ("R14M", 2.02),
    ("T11N", 3.02),
    ("L10D", 4.03),
    ("L17G", 5.38),
    ("A12N", 1.73),
    ("E19L", 2.39),
    ("R14W", 2.58),
    ("S9V", 1.66),
    ("N7Q", 2.67),
    ("L10E", 3.55),
    ("E5Y", 2.03),
    ("L10A", 3.75),
    ("R14H", 3.87),
    ("L18H", 3.84),
    ("E5C", 2.31),
    ("R14C", 3.37),
    ("L17K", 5.36),
    ("N7H", 2.43),
    ("N7D", 3.24),
    ("E19Q", 2.36),
    ("E19I", 2.31),
    ("E19M", 2.92),
    ("K16M", 2.26),
    ("E21Y", 2.77),
    ("Q22S", 3.44),
    ("K16R", 3.06),
    ("R14G", 4.19),
    ("E2A", 2.84),
    ("M8N", 2.41),
    ("S1P", 2.94),
    ("L24Y", 3.82),
    ("R14K", 3.94),
    ("E5W", 1.79),
    ("L24G", 5.01),
    ("T11C", 2.82),
    ("N7E", 2.56),
    ("R14L", 2.05),
    ("T11Q", 3.65),
    ("E2H", 2.3),
    ("E2C", 2.66),
    ("A20L", 3.98),
    ("S1C", 2.63),
    ("S1D", 3.64),
    ("L13D", 5.55),
    ("L6G", 3.95),
    ("K16D", 4.25),
    ("L24Q", 4.78),
    ("E19Y", 2.62),
    ("A12Q", 2.29),
    ("A20H", 3.93),
    ("S1A", 3.43),
    ("M8Y", 2.37),
    ("L24H", 4.41),
    ("L6I", 2.76),
    ("L6K", 3.75),
    ("E15G", 3.04),
    ("S9N", 3.06),
    ("L10Q", 4.14),
    ("E4M", 2.07),
    ("E2D", 3.06),
    ("E5Q", 2.72),
    ("L18R", 3.67),
    ("L6C", 3.71),
    ("A12E", 2.38),
    ("E2Y", 1.68),
    ("L13Q", 4.47),
    ("E21R", 3.26),
    ("L10I", 1.9),
    ("V3P", 3.47),
    ("T11K", 3.15),
    ("E19R", 2.78),
    ("M8T", 3.25),
    ("N7S", 2.97),
    ("E2Q", 2.69),
    ("R14T", 3.62),
    ("E4T", 2.59),
    ("R14S", 4.41),
    ("E4L", 2.26),
    ("E2T", 2.41),
    ("E21C", 2.23),
    ("A20V", 4.41),
    ("Q22F", 1.75),
    ("S9H", 3.28),
    ("A12M", 1.9),
]

Values compiled from the supplement of paper PMC10567573.
